# measurement target: RARα (Homo sapiens)
# Construct: gal4 (fusion partner); expressed in transfected cells; host or cells: COS-7
# run description: Transactivation assay for RAR alpha (gal4-RAR fusion, luciferase reporter, COS-7 cells)
# Type: cell-based
# condition context: ratio of test compound EC50 to that of atRA on the same plate
Listed here are molecules together with their documented RARα activity ratio.

Worked cases, RARα activity ratio given:
Can you look up the measured RARα activity ratio of COc1c(Cl)cc(C(=O)Nc2ccc(C(=O)O)cc2F)cc1C(F)(F)F [AAA-067] for me?
50

Can you look up the measured RARα activity ratio of O=C(O)c1ccc(NC(=O)c2cc(Cl)c(OC3CCCC3)c(C(F)(F)F)c2)cc1 [AAA-043] for me?
2

Can you look up the measured RARα activity ratio of COc1c(Cl)cc(C(=O)Nc2ccc(C(=O)O)cc2)cc1C(F)(F)F [AAA-035] for me?
0.30

Can you look up the measured RARα activity ratio of O=C(O)c1ccc(NC(=O)c2cc(Cl)c(OC3CCC3)c(C(F)(F)F)c2)cc1 [AAA-036] for me?
7.0

Can you look up the measured RARα activity ratio of CC(C)(C)Oc1cc(C(=O)Nc2ccc(C(=O)O)cc2)cc(Cl)c1OC(C)(C)C [AAA-048] for me?
0.86

Can you look up the measured RARα activity ratio of CC(C)Oc1cc(C(=O)Nc2ccc(C(=O)O)cc2)cc(C(F)(F)F)c1OC(C)C [AAA-120] for me?
0.89

Can you look up the measured RARα activity ratio of CCOc1c(Cl)cc(C(=O)Nc2cc(F)c(C(=O)O)c(F)c2)cc1C(F)(F)F [AAA-022] for me?
448

Can you look up the measured RARα activity ratio of CCOc1ccc(C(=O)Nc2ccc(C(=O)O)cc2)cc1C(F)(F)F [XXX-01, reference compound] for me?
327

New cases:
Can you look up the measured RARα activity ratio of O=C(O)c1ccc(NC(=O)c2cc(Cl)c(OCc3ccccc3)c(OCc3ccccc3)c2)cc1 [AAA-045] for me?
7.3

---

# measurement target: RARα (Homo sapiens, UniProt P10276)
# Construct: gal4 (fusion partner); expressed in transfected cells; host or cells: COS-7
# Sequence (P10276 183-417 limits assumed, species assumed): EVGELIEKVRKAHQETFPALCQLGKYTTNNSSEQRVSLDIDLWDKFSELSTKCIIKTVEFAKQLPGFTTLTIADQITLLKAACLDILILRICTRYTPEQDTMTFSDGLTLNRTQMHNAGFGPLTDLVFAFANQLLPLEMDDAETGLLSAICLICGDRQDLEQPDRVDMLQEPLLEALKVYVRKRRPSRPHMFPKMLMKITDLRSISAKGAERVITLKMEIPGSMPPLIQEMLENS
# run description: Transactivation assay for RAR alpha (gal4-RAR fusion, luciferase reporter, COS-7 cells)
# Assay type: cell-based
# condition context: ratio of test compound EC50 to that of atRA on the same plate
measurement label: RARα activity ratio
Please respond with just the number, no unit label.

Worked cases, RARα activity ratio given:
Can you look up the measured RARα activity ratio of COc1c(Cl)cc(C(=O)Nc2ccc(C(=O)O)cc2)cc1OC1CCC1 for me?
12

Can you look up the measured RARα activity ratio of CC1=C(/C=C/C(C)=C/C=C/C(C)=C/C(=O)O)C(C)(C)CCC1 [atRA, all trans retinoic acid] for me?
1

Can you look up the measured RARα activity ratio of O=C(O)c1ccc(NC(=O)c2cc(Cl)cc(Cl)c2)cc1 [XXX-03, 4-(3,5-Dichlorobenzamido)benzoic acid, reference compound] for me?
90

New cases:
Can you look up the measured RARα activity ratio of CCOc1c(Cl)cc(NC(=O)c2ccc(C(=O)O)cc2)cc1Cl for me?
30

---

# measurement target: RARα (Homo sapiens)
# Construct: gal4 (fusion partner); expressed in transfected cells; host or cells: COS-7
# run description: Transactivation assay for RAR alpha (gal4-RAR fusion, luciferase reporter, COS-7 cells)
# Assay type: cell-based
# condition context: fold-selectivity for RARα over RARβ
measurement label: RARα/RARβ ratio (*)

Can you look up the measured RARα/RARβ ratio (*) of CC(C)Oc1c(Cl)cc(C(=O)Nc2ccc(C(=O)O)cc2)cc1C(F)(F)F for me?
122

Can you look up the measured RARα/RARβ ratio (*) of COc1c(Cl)cc(C(=O)Nc2ccc(C(=O)O)c(O)c2)cc1C(F)(F)F for me?
701

Can you look up the measured RARα/RARβ ratio (*) of COc1c(Cl)cc(C(=O)Nc2ccc(C(=O)O)c(C)c2)cc1Cl for me?
107

Can you look up the measured RARα/RARβ ratio (*) of CCOc1cc(C(=O)Nc2ccc(C(=O)O)c(C)c2)cc(OCC)c1Br for me?
120

Can you look up the measured RARα/RARβ ratio (*) of CCOc1cc(C(=O)Nc2ccc(C(=O)O)cc2)cc(OCC)c1OCC for me?
173.0

Can you look up the measured RARα/RARβ ratio (*) of COc1c(Cl)cc(C(=O)Nc2ccc(C(=O)O)cn2)cc1C(F)(F)F for me?
9

Can you look up the measured RARα/RARβ ratio (*) of CCOc1c(Cl)cc(C(=O)Nc2cc(F)c(C(=O)O)c(F)c2)cc1C(F)(F)F for me?
>50

Can you look up the measured RARα/RARβ ratio (*) of CCOc1cc(C(=O)Nc2ccc(C(=O)O)cc2)cc(Cl)c1OC(C)C for me?
3.1

Can you look up the measured RARα/RARβ ratio (*) of CCOc1c(OC(C)C)cc(C(=O)Nc2ccc(C(=O)O)c(C)c2)cc1OC(C)C for me?
118

---

# measurement target: RARγ (Homo sapiens)
# Construct: gal4 (fusion partner); expressed in transfected cells; host or cells: COS-7
# run description: Transactivation assay for RAR gamma (gal4-RAR fusion, luciferase reporter, COS-7 cells)
# Format: cell-based
# condition context: ratio of test compound EC50 to that of atRA; inactive = no agonist action at the highest concentration tested
measurement label: RARγ activity ratio
Please respond with just the number, no unit label.

Can you look up the measured RARγ activity ratio of CC(C)Oc1cc(C(=O)Nc2ccc(C(=O)O)c(F)c2)cc(Cl)c1OC(C)C [AAA-095] for me?
812

Can you look up the measured RARγ activity ratio of CC(C)Oc1c(Cl)cc(C(=O)Nc2ccc(C(=O)O)cc2)cc1C(F)(F)F [AAA-034] for me?
1250

Can you look up the measured RARγ activity ratio of O=C(O)c1ccc(NC(=O)c2cc(Cl)c(OC3CCCC3)c(OC3CCCC3)c2)cc1 [AAA-044] for me?
571

Can you look up the measured RARγ activity ratio of COc1c(Cl)cc(C(=O)Nc2ccc(C(=O)O)c(C)c2)cc1Cl [AAA-055] for me?
69000

---

# measurement target: RARγ (Homo sapiens, UniProt P13631)
# Construct: gal4 (fusion partner); expressed in transfected cells; host or cells: COS-7
# Sequence (P13631 185-419 limits assumed, species assumed): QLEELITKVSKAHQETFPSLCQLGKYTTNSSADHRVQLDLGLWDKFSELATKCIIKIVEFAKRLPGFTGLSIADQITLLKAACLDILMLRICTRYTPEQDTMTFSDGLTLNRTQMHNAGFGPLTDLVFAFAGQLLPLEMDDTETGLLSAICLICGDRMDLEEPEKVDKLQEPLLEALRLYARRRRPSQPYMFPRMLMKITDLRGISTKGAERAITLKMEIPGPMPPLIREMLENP
# run description: Transactivation assay for RAR gamma (gal4-RAR fusion, luciferase reporter, COS-7 cells)
# Type: cell-based
# condition context: ratio of test compound EC50 to that of atRA; inactive = no agonist action at the highest concentration tested
measurement label: RARγ activity ratio

Can you look up the measured RARγ activity ratio of CCOc1c(Cl)cc(C(=O)Nc2ccc(C(=O)O)c(C)c2)cc1Cl for me?
136

Can you look up the measured RARγ activity ratio of CCOc1cc(C(=O)Nc2ccc(C(=O)O)cc2)cc(Cl)c1OC(C)C for me?
1203

Can you look up the measured RARγ activity ratio of CCOc1c(OC(C)C)cc(C(=O)Nc2ccc(C(=O)O)c(C)c2)cc1OC(C)C for me?
1531

Can you look up the measured RARγ activity ratio of COc1cc(C(=O)Nc2ccc(C(=O)O)cc2)cc(Cl)c1OC1CCCC1 for me?
5840

Can you look up the measured RARγ activity ratio of CC(C)Oc1cc(C(=O)Nc2ccc(C(=O)O)cc2)cc(C(F)(F)F)c1OC(C)C for me?
2162

New cases:
Can you look up the measured RARγ activity ratio of CCOc1c(Cl)cc(NC(=O)c2ccc(C(=O)O)cc2)cc1Cl for me?
inactive

Can you look up the measured RARγ activity ratio of CC(C)Oc1cc(C(=O)Nc2ccc(C(=O)O)c(F)c2)cc(OC(C)C)c1Br for me?
32500

Can you look up the measured RARγ activity ratio of CCOc1c(C(F)(F)F)cc(NC(=O)c2ccc(C(=O)O)cc2)cc1C(F)(F)F for me?
inactive

Can you look up the measured RARγ activity ratio of COc1c(Cl)cc(C(=O)Nc2ccc(C(=O)O)c(O)c2)cc1C(F)(F)F for me?
>62500

Can you look up the measured RARγ activity ratio of CCOc1c(Cl)cc(C(=O)Nc2ccc(C(=O)O)cc2)cc1OC [AAA-024] for me?
27200

Can you look up the measured RARγ activity ratio of Cc1cc(NC(=O)c2cc(Cl)c(OC(C)(C)C)c(Cl)c2)ccc1C(=O)O for me?
22

Can you look up the measured RARγ activity ratio of CC(C)(C)Oc1c(Cl)cc(C(=O)Nc2ccc(C(=O)O)cc2)cc1C(F)(F)F for me?
>2600
